Target: c-Met (Homo sapiens (Human))
Assay: Reaction Biology HotSpot kinase assay
Type: biochemical
Conditions: 500 nM compound; read-out: Percentage kinase inhibition c-Met
Description: The Reaction Biology Corporation (www.reactionbiology.com, Malvern, PA) HotSpot assay platform was used to measure kinase/inhibitor interactions exactly as previously described. Kinase and substrate were mixed in a buffer containing 20 mM HEPES pH 7.5, 10 mM MgCl2, 1 mM EGTA, 0.02% Brij35, 0.02 mg/mL BSA, 0.1 mM Na3VO4, 2 mM DTT and 1% DMSO. […] Percent remaining kinase activity of a vehicle (DMSO) containing kinase reaction was calculated for each kinase/inhibitor pair using Prism 5 (GraphPad). […]
MEASUREMENT NAME: inhibition at 0.5 µM (%)
Express your answer in %, writing the number without its unit.

SMILES STRING: Cc1ccc(C(=O)Nc2ccc(CN3CCN(C)CC3)c(C(F)(F)F)c2)cc1C#Cc1cnc(N)c2ccccc12
inhibition at 0.5 µM, %: 14

SMILES STRING: Cc1ccc(C(=O)Nc2ccc(CN3CCN(C)CC3)c(C(F)(F)F)c2)cc1C#Cc1cnc(N)c2ncccc12
inhibition at 0.5 µM, %: 15

SMILES STRING: Cc1ccc(C(=O)Nc2ccc(CN3CCN(C)CC3)c(C(F)(F)F)c2)cc1C#Cc1cc(N)nc2ccccc12
inhibition at 0.5 µM, %: 23

SMILES STRING: Cc1ccc(C(=O)Nc2ccc(CN3CCN(C)CC3)c(C(F)(F)F)c2)cc1C#Cc1c(N)ncc2ccc(Cl)cc12
inhibition at 0.5 µM, %: 20

# context switch: different molecule, same inhibition at 0.5 µM
// query Could you tell me which inhibition at 0.5 µM is on file for COc1cc2nc(N)nc(C#Cc3cc(C(=O)Nc4ccc(CN5CCN(C)CC5)c(C(F)(F)F)c4)ccc3C)c2cc1OC ?
// result 15

###

Target: PDGFRa (Homo sapiens (Human), UniProt P16234)
Test: Reaction Biology HotSpot kinase assay
Format: biochemical
Settings: 500 nM compound; read-out: Percentage kinase inhibition PDGFRa
MEASUREMENT NAME: inhibition at 0.5 µM (%)
Express your answer in %, writing the number without its unit.

SMILES STRING: Cc1ccc(C(=O)Nc2ccc(CN3CCN(C)CC3)c(C(F)(F)F)c2)cc1C#Cc1cnc(N)c2ncccc12
TESTED SYSTEM: PDGFRa (Homo sapiens (Human), UniProt P16234)
inhibition at 0.5 µM / %: 92

SMILES STRING: Cc1ccc(C(=O)Nc2ccc(CN3CCN(C)CC3)c(C(F)(F)F)c2)cc1C#Cc1cc(N)nc2ccccc12
TESTED SYSTEM: PDGFRa (Homo sapiens (Human), UniProt P16234)
inhibition at 0.5 µM / %: 30

SMILES STRING: Cc1ccc(C(=O)Nc2ccc(CN3CCN(C)CC3)c(C(F)(F)F)c2)cc1C#Cc1c(N)ncc2ccc(Cl)cc12
TESTED SYSTEM: PDGFRa (Homo sapiens (Human), UniProt P16234)
inhibition at 0.5 µM / %: 93

SMILES STRING: COc1cc2nc(N)nc(C#Cc3cc(C(=O)Nc4ccc(CN5CCN(C)CC5)c(C(F)(F)F)c4)ccc3C)c2cc1OC
TESTED SYSTEM: PDGFRa (Homo sapiens (Human), UniProt P16234)
inhibition at 0.5 µM / %: 53

// query Could you tell me which inhibition at 0.5 µM is on file for Cc1ccc(C(=O)Nc2ccc(CN3CCN(C)CC3)c(C(F)(F)F)c2)cc1C#Cc1cnc(N)c2ccccc12 ?
// result 86

###

Molecular target: UniProtKB P00519
Sequence (P00519 whole entry): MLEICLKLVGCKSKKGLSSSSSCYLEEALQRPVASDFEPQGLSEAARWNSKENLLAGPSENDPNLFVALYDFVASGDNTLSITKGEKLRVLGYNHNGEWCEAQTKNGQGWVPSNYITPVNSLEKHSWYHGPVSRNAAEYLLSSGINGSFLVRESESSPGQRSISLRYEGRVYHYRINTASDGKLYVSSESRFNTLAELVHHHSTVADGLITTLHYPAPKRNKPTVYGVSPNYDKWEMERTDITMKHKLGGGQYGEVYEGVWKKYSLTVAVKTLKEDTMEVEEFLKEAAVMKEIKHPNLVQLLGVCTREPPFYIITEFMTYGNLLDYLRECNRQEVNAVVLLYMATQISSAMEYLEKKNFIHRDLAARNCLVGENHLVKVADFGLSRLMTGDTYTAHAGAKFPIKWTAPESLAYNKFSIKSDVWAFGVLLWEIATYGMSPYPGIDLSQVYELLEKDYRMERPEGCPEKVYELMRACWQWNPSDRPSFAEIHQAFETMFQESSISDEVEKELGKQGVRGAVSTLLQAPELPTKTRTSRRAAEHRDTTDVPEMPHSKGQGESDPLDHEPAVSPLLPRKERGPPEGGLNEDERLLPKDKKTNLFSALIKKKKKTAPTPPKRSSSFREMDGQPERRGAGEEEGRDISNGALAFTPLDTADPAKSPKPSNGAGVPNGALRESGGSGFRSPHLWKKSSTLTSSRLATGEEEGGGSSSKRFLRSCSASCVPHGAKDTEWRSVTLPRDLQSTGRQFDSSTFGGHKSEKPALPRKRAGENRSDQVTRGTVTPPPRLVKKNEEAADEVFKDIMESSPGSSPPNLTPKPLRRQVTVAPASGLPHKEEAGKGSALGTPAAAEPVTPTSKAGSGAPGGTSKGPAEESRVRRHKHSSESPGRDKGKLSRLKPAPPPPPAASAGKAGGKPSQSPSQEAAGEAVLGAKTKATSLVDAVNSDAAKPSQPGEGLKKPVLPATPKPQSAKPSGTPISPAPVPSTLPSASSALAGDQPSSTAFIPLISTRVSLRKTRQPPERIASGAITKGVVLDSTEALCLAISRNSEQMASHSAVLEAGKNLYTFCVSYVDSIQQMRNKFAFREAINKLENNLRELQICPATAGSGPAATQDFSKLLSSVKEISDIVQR
Each entry below lists one item and its recorded pKd value.
# reply with the number alone; pKd is -log10 of concentration in mol/L

SMILES STRING: Cc1ccc(C(=O)Nc2ccc(CN3CCN(C)CC3)c(C(F)(F)F)c2)cc1C#Cc1cnc(N)c2ccccc12
TESTED SYSTEM: UniProtKB P00519
RESULT: 8.36
//
SMILES STRING: Cc1ccc(C(=O)Nc2ccc(CN3CCN(C)CC3)c(C(F)(F)F)c2)cc1C#Cc1c(N)ncc2ccc(Cl)cc12
TESTED SYSTEM: UniProtKB P00519
RESULT: 8.14

# context switch: different compound, same pKd
// query Could you tell me which pKd is on file for Cc1ccc(C(=O)Nc2ccc(CN3CCN(C)CC3)c(C(F)(F)F)c2)cc1C#Cc1cnc(N)c2ncccc12 ?
// result 8.60

###

Molecular target: c-Src (Homo sapiens (Human), UniProt P12931)
Sequence (P12931 whole entry, looked up): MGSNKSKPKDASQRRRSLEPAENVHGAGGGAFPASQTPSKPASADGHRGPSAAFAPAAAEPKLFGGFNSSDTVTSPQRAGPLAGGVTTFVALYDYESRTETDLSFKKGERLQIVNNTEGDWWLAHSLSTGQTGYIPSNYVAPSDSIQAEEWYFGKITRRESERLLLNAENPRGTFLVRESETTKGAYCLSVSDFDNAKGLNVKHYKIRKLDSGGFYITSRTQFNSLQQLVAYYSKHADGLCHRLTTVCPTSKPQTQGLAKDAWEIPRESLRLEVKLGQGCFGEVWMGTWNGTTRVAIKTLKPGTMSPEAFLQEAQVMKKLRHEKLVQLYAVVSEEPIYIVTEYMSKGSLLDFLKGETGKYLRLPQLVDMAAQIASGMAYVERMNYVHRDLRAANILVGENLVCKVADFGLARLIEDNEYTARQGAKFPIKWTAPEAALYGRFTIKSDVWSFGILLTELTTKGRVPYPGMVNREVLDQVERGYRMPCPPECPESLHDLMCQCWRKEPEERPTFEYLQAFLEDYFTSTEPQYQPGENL
Assay: Reaction Biology HotSpot kinase assay
Assay type: biochemical
Settings: 500 nM compound; read-out: Percentage kinase inhibition c-Src
Label rule, in plain words: inhibition at 0.5 µM of 30% and up is t, under 30% is f.

The examples below pair each entry with its known result.
SMILES STRING: Cc1ccc(C(=O)Nc2ccc(CN3CCN(C)CC3)c(C(F)(F)F)c2)cc1C#Cc1c(N)ncc2c(Cl)cccc12
CATEGORY LABEL: t
//
SMILES STRING: Cc1ccc(C(=O)NCCN2CCCCC2)cc1C#Cc1c(N)ncc2ccc(Cl)cc12
CATEGORY LABEL: f
//
SMILES STRING: Cc1ccc(C(=O)Nc2ccc(CN3CCN(C)CC3)c(C(F)(F)F)c2)cc1C#Cc1cc(N)nc2ccccc12
CATEGORY LABEL: f
//
SMILES STRING: Cc1ccc(C(=O)Nc2ccc(CN3CCN(C)CC3)c(C(F)(F)F)c2)cc1C#Cc1c(N)ncc2ccccc12
CATEGORY LABEL: t

Consider now this further compound.
// query Is it the case that CCN(CC)CCNC(=O)c1ccc(C)c(C#Cc2c(N)ncc3ccc(Cl)cc23)c1 has inhibition at 0.5 µM reaching or exceeding 30%?
// result f

###

Target: FLT4/VEGFR3 (Homo sapiens (Human), UniProt P35916)
Sequence (P35916 25-1363): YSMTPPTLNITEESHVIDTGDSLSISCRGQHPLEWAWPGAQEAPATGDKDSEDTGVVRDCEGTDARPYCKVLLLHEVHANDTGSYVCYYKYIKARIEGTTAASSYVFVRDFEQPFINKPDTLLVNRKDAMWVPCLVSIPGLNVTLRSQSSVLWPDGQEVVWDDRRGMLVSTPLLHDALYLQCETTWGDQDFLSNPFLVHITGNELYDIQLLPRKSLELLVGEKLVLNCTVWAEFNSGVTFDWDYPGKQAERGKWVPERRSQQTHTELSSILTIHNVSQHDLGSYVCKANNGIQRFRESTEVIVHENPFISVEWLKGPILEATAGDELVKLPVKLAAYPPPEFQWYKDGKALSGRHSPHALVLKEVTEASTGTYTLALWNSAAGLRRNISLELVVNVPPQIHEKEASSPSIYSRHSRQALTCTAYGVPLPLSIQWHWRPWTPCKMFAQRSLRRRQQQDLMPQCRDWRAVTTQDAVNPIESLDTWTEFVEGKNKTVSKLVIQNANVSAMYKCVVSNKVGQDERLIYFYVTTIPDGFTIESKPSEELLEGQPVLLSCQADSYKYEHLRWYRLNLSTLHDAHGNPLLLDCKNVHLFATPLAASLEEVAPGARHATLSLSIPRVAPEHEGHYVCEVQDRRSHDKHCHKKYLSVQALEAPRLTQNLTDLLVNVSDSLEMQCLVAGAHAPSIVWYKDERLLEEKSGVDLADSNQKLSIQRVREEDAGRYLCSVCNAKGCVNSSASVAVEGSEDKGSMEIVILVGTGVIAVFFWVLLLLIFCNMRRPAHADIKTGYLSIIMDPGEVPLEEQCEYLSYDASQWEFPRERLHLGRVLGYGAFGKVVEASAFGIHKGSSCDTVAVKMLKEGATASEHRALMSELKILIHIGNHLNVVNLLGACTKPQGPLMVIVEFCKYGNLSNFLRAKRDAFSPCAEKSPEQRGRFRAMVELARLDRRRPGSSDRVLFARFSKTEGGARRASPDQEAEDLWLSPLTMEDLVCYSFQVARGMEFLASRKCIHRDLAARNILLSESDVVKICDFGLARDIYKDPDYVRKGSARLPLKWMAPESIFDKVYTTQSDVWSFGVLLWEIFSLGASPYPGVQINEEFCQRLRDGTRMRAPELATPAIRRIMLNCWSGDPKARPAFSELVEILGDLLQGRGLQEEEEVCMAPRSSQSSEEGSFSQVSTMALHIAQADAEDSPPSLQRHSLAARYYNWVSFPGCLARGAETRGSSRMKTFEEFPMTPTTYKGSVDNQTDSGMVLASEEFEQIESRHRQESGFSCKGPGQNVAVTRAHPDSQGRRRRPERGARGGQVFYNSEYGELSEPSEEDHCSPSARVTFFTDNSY
Experiment: Reaction Biology HotSpot kinase assay
Type: biochemical
Conditions: 500 nM compound; read-out: Percentage kinase inhibition FLT4/VEGFR3
MEASUREMENT NAME: inhibition at 0.5 µM (%)
Express your answer in %, writing the number without its unit.

Example compounds with recorded inhibition at 0.5 µM:
SMILES STRING: Cc1ccc(C(=O)Nc2ccc(CN3CCN(C)CC3)c(C(F)(F)F)c2)cc1C#Cc1cnc(N)c2ccccc12
UNIT ABBREVIATION: %
inhibition at 0.5 µM: 79

SMILES STRING: Cc1ccc(C(=O)Nc2ccc(CN3CCN(C)CC3)c(C(F)(F)F)c2)cc1C#Cc1cc(N)nc2ccccc12
UNIT ABBREVIATION: %
inhibition at 0.5 µM: 6

SMILES STRING: Cc1ccc(C(=O)Nc2ccc(CN3CCN(C)CC3)c(C(F)(F)F)c2)cc1C#Cc1cnc(N)c2ncccc12
UNIT ABBREVIATION: %
inhibition at 0.5 µM: 94

// query Could you tell me which inhibition at 0.5 µM is on file for Cc1ccc(C(=O)Nc2ccc(CN3CCN(C)CC3)c(C(F)(F)F)c2)cc1C#Cc1c(N)ncc2ccc(Cl)cc12 ?
// result 98

// query Next compound: COc1cc2nc(N)nc(C#Cc3cc(C(=O)Nc4ccc(CN5CCN(C)CC5)c(C(F)(F)F)c4)ccc3C)c2cc1OC
// result 42

###

Target: UniProt O14965
Sequence (O14965 whole entry): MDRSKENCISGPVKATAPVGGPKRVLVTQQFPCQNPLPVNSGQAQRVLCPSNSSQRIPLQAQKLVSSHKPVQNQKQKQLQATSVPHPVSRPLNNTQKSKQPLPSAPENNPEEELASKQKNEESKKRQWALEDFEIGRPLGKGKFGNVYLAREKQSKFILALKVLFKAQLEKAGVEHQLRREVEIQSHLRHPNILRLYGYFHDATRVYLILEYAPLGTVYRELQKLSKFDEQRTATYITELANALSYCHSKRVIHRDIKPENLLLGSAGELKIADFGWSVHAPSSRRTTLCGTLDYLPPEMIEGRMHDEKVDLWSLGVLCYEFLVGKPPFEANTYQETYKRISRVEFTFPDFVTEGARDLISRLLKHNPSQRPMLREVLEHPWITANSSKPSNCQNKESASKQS
MEASUREMENT NAME: pKd
# reply with the number alone; pKd is -log10 of concentration in mol/L

// query Could you tell me which pKd is on file for Cc1ccc(C(=O)Nc2ccc(CN3CCN(C)CC3)c(C(F)(F)F)c2)cc1C#Cc1cnc(N)c2ncccc12 [HSN356] ?
// result 5.29

###

Biological target: FLT3 (D835V) (Homo sapiens (Human), UniProt P36888, D835V)
Assay: DiscoverX Kd Elect binding
Each entry below lists one item and its recorded Kd value.
Express your answer in nM, writing the number without its unit.

Example compounds with recorded Kd:
COMPOUND: Cc1ccc(C(=O)Nc2ccc(CN3CCN(C)CC3)c(C(F)(F)F)c2)cc1C#Cc1cnc(N)c2ncccc12 [HSN356]
UNIT ABBREVIATION: nM
Kd: 19

COMPOUND: Cc1ccc(C(=O)Nc2ccc(CN3CCN(C)CC3)c(C(F)(F)F)c2)cc1C#Cc1cnc(N)c2ccccc12 [HSN334]
UNIT ABBREVIATION: nM
Kd: 120

# context switch: different compound, same Kd
// query Could you tell me which Kd is on file for Cc1ccc(C(=O)Nc2ccc(CN3CCN(C)CC3)c(C(F)(F)F)c2)cc1C#Cc1c(N)ncc2ccc(Cl)cc12 [HSN286] ?
// result 120

###

Target: BTK (Homo sapiens (Human), UniProt Q06187)
Sequence (Q06187 whole entry): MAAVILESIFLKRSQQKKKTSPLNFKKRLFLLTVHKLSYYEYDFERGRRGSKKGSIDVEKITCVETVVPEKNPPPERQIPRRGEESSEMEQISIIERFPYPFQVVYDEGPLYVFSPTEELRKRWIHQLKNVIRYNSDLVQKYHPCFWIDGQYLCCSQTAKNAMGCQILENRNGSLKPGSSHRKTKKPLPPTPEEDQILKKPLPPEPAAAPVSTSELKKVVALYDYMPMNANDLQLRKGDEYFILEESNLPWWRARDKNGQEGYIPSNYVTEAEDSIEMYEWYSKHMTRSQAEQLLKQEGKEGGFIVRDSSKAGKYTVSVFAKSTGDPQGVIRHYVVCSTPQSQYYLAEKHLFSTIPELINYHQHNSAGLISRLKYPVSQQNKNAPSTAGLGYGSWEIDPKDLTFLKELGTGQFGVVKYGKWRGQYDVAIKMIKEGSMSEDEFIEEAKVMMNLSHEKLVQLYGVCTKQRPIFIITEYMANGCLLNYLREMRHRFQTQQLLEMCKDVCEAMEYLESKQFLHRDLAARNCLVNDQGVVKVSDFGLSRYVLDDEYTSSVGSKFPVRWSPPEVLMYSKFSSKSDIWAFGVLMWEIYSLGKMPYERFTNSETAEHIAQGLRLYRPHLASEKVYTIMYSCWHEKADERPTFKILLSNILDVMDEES
Assay: Reaction Biology HotSpot kinase assay
Type: biochemical
Conditions: 500 nM compound; read-out: Percentage kinase inhibition BTK
Label rule, in plain words: inhibition at 0.5 µM of 40% and up is yes, under 40% is no.

The examples below pair each entry with its known result.
SMILES STRING: CC1(C)CNC(c2ccc(C#Cc3cc(N)nc4ccccc34)cc2F)=N1
TESTED SYSTEM: BTK (Homo sapiens (Human), UniProt Q06187)
CATEGORY LABEL: yes
--
SMILES STRING: Cc1ccc(C(=O)Nc2ccc(CN3CCN(C)CC3)c(C(F)(F)F)c2)cc1C#Cc1cnc(N)c2ccccc12
TESTED SYSTEM: BTK (Homo sapiens (Human), UniProt Q06187)
CATEGORY LABEL: yes
--
SMILES STRING: COc1cc2nc(N)nc(C#Cc3cc(C(=O)Nc4ccc(CN5CCN(C)CC5)c(C(F)(F)F)c4)ccc3C)c2cc1OC
TESTED SYSTEM: BTK (Homo sapiens (Human), UniProt Q06187)
CATEGORY LABEL: no
--
SMILES STRING: Cc1ccc(C(=O)Nc2ccc(CN3CCN(C)CC3)c(C(F)(F)F)c2)cc1C#Cc1cnc(N)c2ncccc12
TESTED SYSTEM: BTK (Homo sapiens (Human), UniProt Q06187)
CATEGORY LABEL: yes

Consider now this further compound.
// query Is it the case that Cc1ccc(C(=O)Nc2ccc(CN3CCN(C)CC3)c(C(F)(F)F)c2)cc1C#Cc1cc(N)nc2ccccc12 has inhibition at 0.5 µM reaching or exceeding 40%?
// result no
